Provenance of the data: PubChem BioAssay AID1963846

Tested on: 454973-116-R2-J3-PDC complex spheroid viability;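 note: spheroids exposed to drugs for seven days before measurement; percent viability relative to DMSO vehicle control wells taken as 100%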
Test protocol: Anticancer human tumor 454973-116-R2-J3-PDC patient-derived pancreatic carcinoma cell line growth inhibition [POLQ]
Test conditions: second compound 10 µM; first compound 3.16 µM; stronger effect = lower value
Assay metric: viability, T/C (%)
Response body: numeric value in %, unit text excluded.

Recorded results for 2 compounds are shown here.
Compound: CC1COCCN1c1cc(C2(O)CC3CCC(C2)O3)c2cnn(-c3ccn[nH]3)c2n1 (stereo not drawn) + Cc1cccc(N(C)C(=O)C2C(O)CCN2c2nc(C)cc(C(F)(F)F)c2C#N)c1
viability, T/C (%): 28.3

Compound: COc1cccc2c1C(=O)c1c(O)c3c(c(O)c1C2=O)CC(O)(C(=O)CO)CC3OC1CC(N)C(O)C(C)O1 (stereo not drawn) + Cc1cccc(N(C)C(=O)C2C(O)CCN2c2nc(C)cc(C(F)(F)F)c2C#N)c1
viability, T/C (%): 0.38

Okay, now this compound:
Documented viability, T/C of CNCc1ccc(-c2[nH]c3cc(F)cc4c3c2CCNC4=O)cc1 + COC1C(OC(N)=O)C(O)C(Oc2ccc3c(O)c(NC(=O)c4ccc(O)c(CC=C(C)C)c4)c(=O)oc3c2C)OC1(C)C : 92
